This collection of values is drawn from patent US9193722B2.

Value type: Ki

Simply: NCC1CN(c2ccc(F)c(-c3n[nH]c4ncccc34)n2)CCC1O (stereo not shown) , PKC alpha kinase (Homo sapiens), Ki = > 1.25 µM

Measured on PKC alpha kinase (Homo sapiens), CC(C)CC1CN(c2ccc(C(F)(F)F)c(-c3n[nH]c4ncccc34)n2)CCC1CN (stereo not shown) has a documented Ki of > 1.25 µM

c1ccc(-c2ccc(N3CCNCC3)nc2-c2n[nH]c3ncccc23)cc1 on PKC alpha kinase (Homo sapiens) gives Ki = > 1.25 µM

PKC alpha kinase (Homo sapiens) data for CCC[C@H]1CN(c2cccc(-c3n[nH]c4ncccc34)n2)CC(F)(F)CN1 ; its Ki: > 1.25 µM

Entry CNC1CCN(c2ccc(C(F)(F)F)c(-c3n[nH]c4ncccc34)n2)CC1 under PKC alpha kinase (Homo sapiens) had Ki of > 1.25 µM

Record CC(C)CC1(CN)CCN(c2ccc(F)c(-c3n[nH]c4ncccc34)n2)CC1 / PKC alpha kinase (Homo sapiens), Ki recorded as > 1.25 µM

Per the reported PKC alpha kinase (Homo sapiens) data, CC(C)C[C@H]1CN(c2cc(C#N)cc(-c3n[nH]c4ncccc34)n2)CCN1 has Ki of > 1.25 µM

Measured Ki for this entry NC1CN(c2cccc(-c3n[nH]c4ncccc34)n2)C1 on PKC alpha kinase (Homo sapiens): > 1.25 µM

Observed Ki, PKC alpha kinase (Homo sapiens), CC(C)C(C)(O)C1CN(c2nc(-c3n[nH]c4ncccc34)ccc2F)CCN1 (stereo not shown) [Compound 376] : > 1.25 µM

Noted Ki for OC1CCN(c2cccc(-c3n[nH]c4ncccc34)n2)CC1 , tested on PKC alpha kinase (Homo sapiens): > 1.25 µM

Measured Ki for this entry CC(C)C(C)(O)C1CN(c2cc(CO)cc(-c3n[nH]c4ncccc34)n2)CCN1 (stereo not shown) on PKC alpha kinase (Homo sapiens): < 2.8 µM

Let me check: CC(C)C(C)(O)C1CN(c2nc(-c3n[nH]c4ncccc34)c(F)cc2F)CCN1 (stereo not shown) [Compound 425] , system PKC alpha kinase (Homo sapiens), measured Ki is < 0.5 µM

Entry CC1(C)CN(c2cccc(-c3n[nH]c4ncccc34)n2)CCN1 under PKC alpha kinase (Homo sapiens) had Ki of > 1.25 µM

Considering c1cc(-c2n[nH]c3ncccc23)nc(N2CCOCC2)c1 , its Ki with PKC alpha kinase (Homo sapiens) was recorded as < 2.8 µM

# value of Ki, PKC alpha kinase (Homo sapiens), item NC1(C2CCCN(c3ccc(F)c(-c4n[nH]c5ncccc45)n3)C2)CCC1 (stereo not shown) = < 2.8 µM

For NCC1CCN(c2cc(CO)cc(-c3n[nH]c4ncccc34)n2)CC1 on PKC alpha kinase (Homo sapiens), measured Ki was > 1.25 µM

Ki for PKC alpha kinase (Homo sapiens) with input CC(C)C[C@H]1CN(c2ccc(C(F)(F)F)c(-c3n[nH]c4ncccc34)n2)C[C@H](C)N1 equals > 1.25 µM

Tested on PKC alpha kinase (Homo sapiens), the item CC(C)[C@@](C)(O)[C@@H]1CN(c2nc(-c3n[nH]c4ncccc34)c(F)cc2F)CCN1 showed Ki equal to < 0.5 µM

The reported PKC alpha kinase (Homo sapiens) Ki of CC(C)(O)C1CN(c2ccc(C(F)(F)F)c(-c3n[nH]c4ncccc34)n2)CCN1 (stereo not shown) is > 1.25 µM

# value of Ki, PKC alpha kinase (Homo sapiens), item CC(C)C[C@H]1CN(c2ccc(C(F)(F)F)c(-c3n[nH]c4ncc(F)cc34)n2)CCN1 = < 2.8 µM

Form field Ki for item CC(C)CC1(C#N)CN(c2ccc(F)c(-c3n[nH]c4ncccc34)n2)C1 on PKC alpha kinase (Homo sapiens): > 1.25 µM

PKC alpha kinase (Homo sapiens) assay, compound NC1CCCN(c2cccc(-c3n[nH]c4ncccc34)n2)C1 (stereo not shown) , recorded Ki = < 2.8 µM

Record CC(C)C[C@H]1CN(c2ccc(C(F)(F)F)c(-c3n[nH]c4ncccc34)n2)CC(F)(F)CN1 / PKC alpha kinase (Homo sapiens), Ki recorded as > 1.25 µM

Entry CC(F)(F)C(C)(O)C1CN(c2ccc(F)c(-c3n[nH]c4ncccc34)n2)CCN1 (stereo not shown) , PKC alpha kinase (Homo sapiens) data, Ki value: > 1.25 µM

I looked up NC1CCN(c2ccc(Cl)c(-c3n[nH]c4ncccc34)n2)CC1 and its Ki for PKC alpha kinase (Homo sapiens) was > 1.25 µM

Simply: CC(C)CC1(O)CN(c2ccc(F)c(-c3n[nH]c4ncccc34)n2)CCC1C#N (stereo not shown) , PKC alpha kinase (Homo sapiens), Ki = > 1.25 µM

Record Fc1ccc(N2CCC3(CCNC3)C2)nc1-c1n[nH]c2ncccc12 (stereo not shown) ; system PKC alpha kinase (Homo sapiens); Ki = > 1.25 µM

Given the compound Fc1ccc(N2CCCCC2)nc1-c1n[nH]c2ncccc12 and test system PKC alpha kinase (Homo sapiens), the measured Ki is > 1.25 µM

Form field, Ki with PKC alpha kinase (Homo sapiens), item CC(C)CC1CN(c2ccc(F)c(-c3n[nH]c4ncccc34)n2)CCC1C#N (stereo not shown) : > 1.25 µM

Test item Clc1cnc2[nH]nc(-c3cccc(N4CCNCC4)n3)c2c1 ; PKC alpha kinase (Homo sapiens); reported Ki was < 0.5 µM

Cc1cc(-c2n[nH]c3ncccc23)nc(N2CCN[C@@H](CC(C)C)C2)c1 tested on PKC alpha kinase (Homo sapiens) gave Ki: > 1.25 µM

Let me check: CC(C)CC1(CO)CN(c2ccc(F)c(-c3n[nH]c4ncccc34)n2)CCC1N (stereo not shown) , system PKC alpha kinase (Homo sapiens), measured Ki is < 0.5 µM

Case FC(F)(F)c1ccc(N2CCNC(c3ccc(Cl)cc3)C2)nc1-c1n[nH]c2ncccc12 (stereo not shown) , PKC alpha kinase (Homo sapiens), Ki recorded as > 1.25 µM

Item: CC(C)CC1CN(c2cc(C(F)(F)F)cc(-c3n[nH]c4ncccc34)n2)CCC1N (stereo not shown) | System: PKC alpha kinase (Homo sapiens) | Ki: > 1.25 µM
